Entries annotated with measured protein stability index
B1: ACSBG2 (parent)
chain: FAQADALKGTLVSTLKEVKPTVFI

Variants of: B1
experiment: protein stability index of a GFP-peptide fusion (GPS, HEK-293T) (PSI 1-6); higher = more stable;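 also: lentivirally expressed fusions sorted by FACS into six bins by GFP to DsRed ratio, PSI derived from sequencing read proportions per bin multiplied by bin number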
condition-info: c terminus: a fixed tail appended
The answer should be written as a number, with no unit following it.

Below are worked cases with known answers.
• I24T = 2.36
• Q3T = 1.8
• T21Y = 1.64
• K8F = 2.34
• L15F = 1.77
• G9F = 2.24
• L15V = 1.06
• L15K = 1.8
• L11K = 1.67
• Q3S = 1.28

Q: # input variant: T14F ; wanted: its protein stability index
Ans: 2.64

Q: # input variant: A4M ; wanted: its protein stability index
Ans: 2.05

Q: # input variant: D5F ; wanted: its protein stability index
Ans: 3.26

Where these numbers come from: the supplement of paper PMC10567573
